# Test system: Liver microsome
# assay-summary: Drug metabolism in pooled human liver microsomes assessed as formation of 3-methyl-4-(2-(piperazin-1-yl)phenylthio)benzoic acid after 20 mins by Michaelis-Menten plot analysis in presence of NADPH regenerating system with NADP+
# Format: ADME
# setup-conditions: read-out: Km(app)
quantity-measured: Km (µM)
Number in µM, nothing else.

Considering `Cc1cc(CO)ccc1Sc1ccccc1N1CCNCC1` , its Km with Liver microsome was recorded as 95
